PROPERTY: melting point

Some compounds with recorded melting point:
COMPOUND: CC1(C)C(=O)OC2=C1CC(OS(C)(=O)=O)C=C2 (stereo unspecified)
melting point: 120 to 121 °C
//
COMPOUND: COC(=O)CN(C)c1nc(-c2ccc(-c3ccccc3)cc2)c(C(=O)OC)s1
melting point: 141 °C
//
COMPOUND: CCCN1CCOc2cccc3nc4c(c1c23)CCCC4
melting point: 74.5 to 75.5 °C

// sample COc1ccc(C2CNCc3c(C)cccc32)cc1OC (stereo unspecified) , its melting point was 86 to 88 °C

// sample Cc1ccccc1CC(C)(C)NC(C)(O)c1ccc(O)c(O)c1C (stereo unspecified) , its melting point was 166 to 169 °C

// sample Cc1ccccc1Sc1cccc2c1OC(=O)C2 , its melting point was 108 to 109 °C

The measurements presented in this section are drawn from a melting point compilation (Tetko et al.; mined from patent text by program, amines drawn as free bases though some values may be those of a salt).
